# credit: paper PMC6449189

# system: LbCas12a (Lachnospiraceae bacterium ND2006, UniProt A0A5S8WF58 1-1228)
# assay name: EMSA
reported property: Kd (nM)

binder	observed
AAUUUCUACUAAGUGUAGAUAAAGUGCUCAUCAUUGGAAAACGU (structured_RNA) [LbCas12a crRNA (24-nt T1) rGJK_007]	17.6
